Values were extracted from ChEMBL document CHEMBL5308504.

Biological target: Cyclin-dependent kinase 2 (Homo sapiens) (UniProt P24941)
Details: Compound concentration 20.0 uM, Protein concentration 2.0 uM, Result type QC Liability
Measured metric: ΔTm
Answer with the number, then the unit.

Per the records, this compound ( COCCc1ccc(-c2c(C)nc3c(N4CCOCC4)ccnn23)cn1 ) has ΔTm equal to 0.2 °C

Per the records, this compound ( COc1ccc(N(C(=O)Nc2c(C)cccc2C)c2cc(Nc3ccc(N4CCN(C)CC4)cc3)ncn2)c(OC)c1 ) has ΔTm equal to 0.7 °C

Per the records, this compound ( CN(C)C(=O)Cn1cc(-c2ccc(-c3cncc4ccccc34)cc2)cn1 ) has ΔTm equal to 0.46 °C

Per the records, this compound ( CCc1cc2c(cc1N1CCC(N3CCOCC3)CC1)C(C)(C)c1[nH]c3cc(C#N)ccc3c1C2=O ) has ΔTm equal to 1.02 °C

Per the records, this compound ( Cc1[nH]c2c(N3CCCCC3)c(-c3ccccc3)nn2c(=O)c1-c1ccc(O)cc1 ) has ΔTm equal to 0.91 °C

Per the records, this compound ( CC/C(=C(\c1ccccc1)c1ccc(OCCN(C)C)cc1)c1ccccc1 ) has ΔTm equal to -1.86 °C

Per the records, this compound ( CC1CN(CC(=O)N2CC(C)(C)c3nc(CO)c(Cc4ccc(F)cc4)cc32)C(CN2CCOCC2C)CN1 (stereo not given) ) has ΔTm equal to 0.68 °C

Per the records, this compound ( COc1ccccc1Nc1nc(-c2nn(Cc3c(F)cc(OCCCO)cc3F)c3ccccc23)ncc1OC ) has ΔTm equal to -0.43 °C

Per the records, this compound ( CN[C@@H](C)C(=O)N[C@H](C(=O)N1CCC[C@H]1C(=O)N[C@@H]1CCCc2ccccc21)C1CCCCC1 ) has ΔTm equal to 0.07 °C

Per the records, this compound ( COc1cc2ncnc(Nc3ccc4c(cnn4Cc4ccccc4)c3)c2cc1OC ) has ΔTm equal to -2.73 °C

Per the records, this compound ( CCCCNc1ncc2c(-c3ccc(CN4CCN(C)CC4)cc3)cn([C@H]3CC[C@H](O)CC3)c2n1 ) has ΔTm equal to 5.95 °C

Per the records, this compound ( C[C@H](CCC(=O)O)[C@H]1CC[C@H]2[C@@H]3CC[C@@H]4C[C@H](O)CC[C@]4(C)[C@H]3C[C@H](O)[C@]12C ) has ΔTm equal to 0.15 °C

Per the records, this compound ( CN(c1ccc(C(F)(F)F)cc1)S(=O)(=O)c1ccc(C(=O)Nc2nc(-c3ccccn3)cs2)cc1 ) has ΔTm equal to 10.4 °C

Per the records, this compound ( COCCN(C)c1ccc(NC(=O)/C=C(\C)c2ccc3ccccc3c2)c(C(=O)O)c1 ) has ΔTm equal to 1.03 °C

Per the records, this compound ( NCc1ccc(OCCCc2sc(-c3ccc4c(c3)/C(=N/Nc3nc5ccccc5s3)CCC4)nc2C(=O)O)cc1 ) has ΔTm equal to 0.49 °C

Per the records, this compound ( Cn1cc(NC(=O)c2ccc3nc4n(c3c2)CCCNC4=O)nc1C(=O)NC1CCCC1 ) has ΔTm equal to 0.41 °C

Per the records, this compound ( COc1cc(Cl)c(C(=O)N[C@@H](CN[C@H]2CC[C@@H](N)CC2)Cc2ccc(C#N)cc2)cc1-c1ccc(CN[C@H](C)c2ccc(C)cc2)o1 ) has ΔTm equal to 0.42 °C

Per the records, this compound ( CN[C@@H](C)C(=O)N[C@H]1CN(C(=O)CC(C)C)CC[C@H]2CC[C@@H](C(=O)NC(c3ccccc3)c3ccccc3)N2C1=O ) has ΔTm equal to 0.45 °C

Per the records, this compound ( CN1CCC(C#N)(NC(=O)[C@@H](NC(=O)N2CCOCC2)C(C)(C)C)CC1 ) has ΔTm equal to 0.23 °C

Per the records, this compound ( C[S+]([O-])c1ccc(-c2nc(-c3cccc(I)c3)c(-c3ccncc3)[nH]2)cc1 (stereo not given) ) has ΔTm equal to -0.2 °C

Per the records, this compound ( CN(C1CCc2c(c3ccccc3n2CC(=O)O)C1)S(=O)(=O)c1ccc(F)cc1 (stereo not given) ) has ΔTm equal to 0.46 °C

Per the records, this compound ( COc1c(OCCCN2CCOCC2)ccc2c1N=C(NC(=O)c1cnc(N)nc1)N1CCN=C21 ) has ΔTm equal to 0.39 °C

Per the records, this compound ( CN(C)C/C=C/C(=O)Nc1cc2c(Nc3ccc(F)c(Cl)c3)ncnc2cc1OC[C@@H]1CCCO1 ) has ΔTm equal to -0.1 °C

Per the records, this compound ( CCn1c(-c2nonc2N)nc2cncc(C(=O)N3CC[C@H](N)C3)c21 ) has ΔTm equal to 0.25 °C

Per the records, this compound ( C/C(=C\C(=O)Nc1ccccc1C(=O)O)c1ccc2ccccc2c1 ) has ΔTm equal to -0.23 °C
